Assay: Cytotoxicity assay
Format: cell-based
Conditions: Cercopithecus aethiops (African green monkey)
MEASUREMENT KIND: IC50

CCN(CC)c1cc2[nH]c(C3CCCCC3)nc2cc1NC(=O)OCC(F)(F)F [Compound 5n] yielded IC50 of > 100 µg/mL

CN(C)c1cc2[nH]c(C3CCCCC3)nc2cc1NC(=O)OCC(F)(F)F [Compound 5p] yielded IC50 of > 100 µg/mL

O=C(Nc1cc2nc(C3CCCCC3)[nH]c2cc1N1CCCC1)OCC(F)(F)F [Compound 5o] yielded IC50 of > 100 µg/mL

// data source = paper PMC3933301
